Cited source for all entries: ChEMBL document CHEMBL1629615

# protocol.summary: Protein binding in human
# Assay type: ADME, organism-based
# protocol.conditions: in vivo, read-out: PB
measured.parameter: fraction unbound

>>> result("CC[C@@H]([C@H](C)O)n1ncn(-c2ccc(N3CCN(c4ccc(OC[C@@H]5CO[C@@](Cn6cncn6)(c6ccc(F)cc6F)C5)cc4)CC3)cc2)c1=O")
"< 0.02"

====

# protocol.summary: AUC (0 to 12 hrs) in healthy human alveolar cell at 400 mg, po every 12 hrs for 7 days
# Type: ADME, organism-based, Pneumocyte
# Parameters: time < 12 hr, dose 400 mg, route oral
# protocol.conditions: alveolar cells
measured.parameter: AUC at 12 h (µg·h/mL)

>>> numeric_readout("CC[C@@H]([C@H](C)O)n1ncn(-c2ccc(N3CCN(c4ccc(OC[C@@H]5CO[C@@](Cn6cncn6)(c6ccc(F)cc6F)C5)cc4)CC3)cc2)c1=O")
715

====

# protocol.summary: Cmax in healthy human plasma at 400 mg, po every 12 hrs for 7 days
# Format: ADME, organism-based
# Set-up: dose 400 mg, route oral
measured.parameter: Cmax

>>> result("CC[C@@H]([C@H](C)O)n1ncn(-c2ccc(N3CCN(c4ccc(OC[C@@H]5CO[C@@](Cn6cncn6)(c6ccc(F)cc6F)C5)cc4)CC3)cc2)c1=O")
"2080 ng/mL"

====

# protocol.summary: Tmax in healthy human lung epithelial lining fluid at 400 mg, po every 12 hrs for 7 days
# Type: ADME, organism-based
measured.parameter: Tmax (h)

>>> numeric_readout("CC[C@@H]([C@H](C)O)n1ncn(-c2ccc(N3CCN(c4ccc(OC[C@@H]5CO[C@@](Cn6cncn6)(c6ccc(F)cc6F)C5)cc4)CC3)cc2)c1=O [POSACONAZOLE]")
5

====

# protocol.summary: Tmax in healthy human alveolar cell at 400 mg, po every 12 hrs for 7 days
# Format: ADME, organism-based, Pneumocyte
# protocol.conditions: alveolar cells
measured.parameter: Tmax (h)

>>> numeric_readout("CC[C@@H]([C@H](C)O)n1ncn(-c2ccc(N3CCN(c4ccc(OC[C@@H]5CO[C@@](Cn6cncn6)(c6ccc(F)cc6F)C5)cc4)CC3)cc2)c1=O")
5

====

# protocol.summary: Drug level in healthy human plasma at 400 mg, po every 12 hrs for 7 days measured after 12 hrs of last dose
# Assay type: ADME, organism-based
# protocol.conditions: read-out: Drug uptake
measured.parameter: concentration at 12 h (ng/mL)

>>> numeric_readout("CC[C@@H]([C@H](C)O)n1ncn(-c2ccc(N3CCN(c4ccc(OC[C@@H]5CO[C@@](Cn6cncn6)(c6ccc(F)cc6F)C5)cc4)CC3)cc2)c1=O")
1620

====

# protocol.summary: AUC (0 to 12 hrs) in healthy human plasma at 400 mg, po every 12 hrs for 7 days
# Type: ADME, organism-based
# Set-up: dose 400 mg, time < 12 hr, route oral
measured.parameter: AUC at 12 h (ng·h/mL)

>>> numeric_readout("CC[C@@H]([C@H](C)O)n1ncn(-c2ccc(N3CCN(c4ccc(OC[C@@H]5CO[C@@](Cn6cncn6)(c6ccc(F)cc6F)C5)cc4)CC3)cc2)c1=O")
21900

====

# protocol.summary: Drug level in healthy human lung epithelial lining fluid at 400 mg, po every 12 hrs for 7 days measured after 5 hrs of last dose
# Type: ADME, organism-based
# protocol.conditions: read-out: Drug uptake
measured.parameter: concentration at 5 h (ng/mL)

>>> numeric_readout("CC[C@@H]([C@H](C)O)n1ncn(-c2ccc(N3CCN(c4ccc(OC[C@@H]5CO[C@@](Cn6cncn6)(c6ccc(F)cc6F)C5)cc4)CC3)cc2)c1=O [POSACONAZOLE]")
1860
